Target: T1, human TGFβ2 (human, UniProt P61812 303-414)
T1 construct: also called TGFβ2 homodimer
T1 sequence: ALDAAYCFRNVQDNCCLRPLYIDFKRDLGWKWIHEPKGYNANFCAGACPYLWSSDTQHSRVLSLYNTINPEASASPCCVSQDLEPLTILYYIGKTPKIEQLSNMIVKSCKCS
Assay: Biacore off-rate vs wt GC1008
Flag rule - kd mutant/kd wt less than 1 flags class 1; the remaining entries get class 0.

# BINDER, CLASS ASSIGNMENT
data = [
    ("I54R (antibody, V domains shown, GC1008 IgG4 variant) VH: QVQLVQSGAEVKKPGSSVKVSCKASGYTFSSNVISWVRQAPGQGLEWMGGVIPRVDIANYAQRFKGRVTITADESTSTTYMELSSLRSEDTAVYYCASTLGLVLDAMDYWGQGTLVTVSS VL: ETVLTQSPGTLSLSPGERATLSCRASQSLGSSYLAWYQQKPGQAPRLLIYGASSRAPGIPDRFSGSGSGTDFTLTISRLEPEDFAVYYCQQYADSPITFGQGTRLEIK", "class 0"),
    ("N32E (antibody, V domains shown, GC1008 IgG4 variant) VH: QVQLVQSGAEVKKPGSSVKVSCKASGYTFSSEVISWVRQAPGQGLEWMGGVIPIVDIANYAQRFKGRVTITADESTSTTYMELSSLRSEDTAVYYCASTLGLVLDAMDYWGQGTLVTVSS VL: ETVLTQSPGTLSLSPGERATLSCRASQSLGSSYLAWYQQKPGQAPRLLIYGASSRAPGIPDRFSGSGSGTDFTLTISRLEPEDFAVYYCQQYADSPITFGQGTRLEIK", "class 1"),
    ("N32K (antibody, V domains shown, GC1008 IgG4 variant) VH: QVQLVQSGAEVKKPGSSVKVSCKASGYTFSSKVISWVRQAPGQGLEWMGGVIPIVDIANYAQRFKGRVTITADESTSTTYMELSSLRSEDTAVYYCASTLGLVLDAMDYWGQGTLVTVSS VL: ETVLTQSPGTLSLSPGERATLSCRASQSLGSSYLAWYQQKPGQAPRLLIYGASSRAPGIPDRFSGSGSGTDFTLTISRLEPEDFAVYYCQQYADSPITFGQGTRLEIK", "class 0"),
    ("I54F (antibody, V domains shown, GC1008 IgG4 variant) VH: QVQLVQSGAEVKKPGSSVKVSCKASGYTFSSNVISWVRQAPGQGLEWMGGVIPFVDIANYAQRFKGRVTITADESTSTTYMELSSLRSEDTAVYYCASTLGLVLDAMDYWGQGTLVTVSS VL: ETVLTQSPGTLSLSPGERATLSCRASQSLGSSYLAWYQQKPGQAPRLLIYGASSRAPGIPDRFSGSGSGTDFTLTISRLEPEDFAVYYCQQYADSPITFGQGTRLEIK", "class 1"),
]
